Test system: U2OS
Test: Incucyte cell viability with U2OS; note: unitless GR value; below 1 slowed growth and below 0 cell loss
Format: toxicity, cell-based
Conditions: human, 12 h, 10 µM, compound concentration 10 uM, replicate number 1
Growth Rate by entry:
# respond with the number and nothing more

Examples from the recorded data:
NS(=O)(=O)c1ccc(Nc2nc(OCC3CCCCC3)c3nc[nH]c3n2)cc1    0.53
Cc1cn([C@@H](C)CC#N)c(=O)c2cc(Cn3nc(C(F)F)cc3Cl)nn12    0.51
O=C(NCc1cccnc1OCC(F)(F)F)c1cncc(-c2ccc(Cl)cc2)c1    0.98

Lab note: CCCCc1oc2ccccc2c1C(=O)c1cc(I)c(OCCN(CC)CC)c(I)c1.Cl [AMIODARONE HYDROCHLORIDE] gave Growth Rate of 0.98

Lab note: "Cc1ccc(-c2cn3nc(C(=O)NC4(c5ccc(F)cc5)CN(C)C4)c(C(C)C)c3c(=O)[nH]2)cc1C" gave Growth Rate of 0.9

Lab note: "CCn1c(-c2ccncc2)cc2c1CCNC2=O" gave Growth Rate of 0.78

Lab note: "COc1cc(N2CCN(C)CC2)ccc1Nc1ncc2c(n1)N(C)c1ccccc1C(=O)N2CC(F)(F)F" gave Growth Rate of 0.97

Lab note: "Cc1cnc(Nc2ccc(C(=O)N3CCN(C)CC3)cc2)nc1N[C@@H]1CCC[C@@H]1C(N)=O" gave Growth Rate of 0.4

Lab note: Clc1ccccc1C(c1ccccc1)(c1ccccc1)n1ccnc1 [CLOTRIMAZOLE] gave Growth Rate of 0.97

Lab note: CC1CNCCc2c1nc1ccnn1c2N1CC(C(=O)N2CCC(C)(C)C2)C1 (stereo unspecified) gave Growth Rate of 0.75

Lab note: "Cc1cc(CN)cc(C)c1-c1ncn(C)c1-c1ccnc2cc(F)ccc12.Cl" gave Growth Rate of 0.92

###

Growth Rate by entry:
System: U2OS
Experiment: Incucyte cell viability with U2OS; note: unitless GR value; below 1 slowed growth and below 0 cell loss
Assay type: toxicity, cell-based
Conditions: human, 12 h, 10 µM, compound concentration 10 uM, replicate number 1
# respond with the number and nothing more

Examples from the recorded data:
O=C(Nc1cccc(C(F)(F)F)c1)c1cccc(-n2cc(-c3ccco3)nn2)c1    0.78
COC(=O)C1=C(C)NC(C)=C(C(=O)OC(C)C)C1c1cccc2nonc12 (stereo unspecified) [ISRADIPINE]    1
NC(=O)c1sc2nc(N3CCC(NC[C@H](O)c4ccccn4)CC3)cc(C(F)(F)F)c2c1N    0.93
NC1(c2ccc(-c3nc4c(O)ccnn4c3-c3ccccc3)cc2)CCC1    0.63
CCc1cncnc1N1CCN(Cc2nc3cc(C(F)(F)F)ccc3[nH]2)CC1    0.51

// next item, Growth Rate requested
Lab note: "Cn1cc(-c2ccc3occ(-c4cccc(-c5ccncc5)c4)c3n2)cn1" gave Growth Rate of 0.6

###

Test system: HEK-293T
Assay: Incucyte cell viability with HEK293T; note: unitless GR value; below 1 slowed growth and below 0 cell loss
Format: toxicity, cell-based
Conditions: human, 24 h, 10 µM, compound concentration 10 uM, replicate number 1
Growth Rate by entry:
# respond with the number and nothing more

Lab note: "Cc1c(C(=O)Nc2cccc(C(F)(F)F)c2)cc(-c2ccccc2)n1CCCN1CCOCC1.Cl" gave Growth Rate of 0.46

Lab note: "Nc1ncnc2[nH]c(-c3ccccc3)nc12" gave Growth Rate of 0.85

Lab note: "O=C(Nc1c[nH]nc1-c1nc2cc(CN3CCOCC3)ccc2[nH]1)NC1CC1" gave Growth Rate of -0.38

###

System: HEK-293T
Experiment: Incucyte cell viability with HEK293T; note: unitless GR value; below 1 slowed growth and below 0 cell loss
Format: toxicity, cell-based
Conditions: human, 18 h, 10 µM, compound concentration 10 uM, replicate number 2
measurement_kind: Growth Rate
# respond with the number and nothing more

Examples from the recorded data:
CN(C)C(=O)c1cc2cnc(Nc3ccc(N4CCN(CCCCNC(=O)COc5cccc6c5C(=O)N(C5CCC(=O)NC5=O)C6=O)CC4)cn3)nc2n1C1CCCC1 (centres undefined)    0.67
O=C(N[C@@H]1C2CCN(CC2)[C@H]1Cc1cccnc1)c1cc2ccccc2o1    0.96
O=C(NCCS(=O)(=O)c1ccc(C(F)(F)F)cn1)c1ccc(Cl)cc1    0.77

Lab note: "COc1cc(-c2cc3ncccc3c(OC[C@H]3CNC(=O)C3)n2)cc(OC)c1OC1CCOCC1.O=C(O)C(F)(F)F" gave Growth Rate of 0.34

###

Growth Rate by entry:
System: U2OS
Experiment: Incucyte cell viability with U2OS; note: unitless GR value; below 1 slowed growth and below 0 cell loss
Assay type: toxicity, cell-based
Conditions: human, 24 h, 10 µM, compound concentration 10 uM, replicate number 1
# respond with the number and nothing more

CSc1ccc(C(=O)/C=C/c2cc(C)c(OC(C)(C)C(=O)O)c(C)c2)cc1    0.92
CN[C@@H](C)C(=O)N[C@H](C(=O)N1CCC[C@H]1C(=O)N[C@H]1c2ccccc2C[C@H]1OCC#CC#CCO[C@@H]1Cc2ccccc2[C@@H]1NC(=O)[C@@H]1CCCN1C(=O)[C@@H](NC(=O)[C@H](C)NC)C1CCCCC1)C1CCCCC1    0.89
Cc1c(N2CCCC2)nc2ccc(Br)cc2c1C(=O)NC[C@H](CCC(=O)O)c1ccccc1Cl.Cl.O    0.91
Cc1nnc2n1-c1sc3c(c1C(c1ccccc1Cl)=NC2)CC(C(=O)N1CCOCC1)C3 (centres undefined)    0.89
CS(=O)(=O)c1ccc(-c2cnc(N)c(C(=O)Nc3ccccc3)n2)cc1    0.88
CC[C@@H](C(=O)OC)n1c(=O)c2ccccc2n(Cc2cn(C)c3cccc(C)c23)c1=O    0.92

Lab note: "Nc1c(CC(=O)O)cccc1C(=O)c1ccc(Br)cc1" gave Growth Rate of 0.74

Lab note: "Cc1cc(-c2nncc3c(C(C)(C)C)c(OCc4ncnn4C)nn23)no1" gave Growth Rate of 0.93

Lab note: O=C(N[C@H]1CCCCC/C=C\C2C[C@@]2(C(=O)O)NC(=O)[C@@H]2C[C@@H](Oc3ccncc3)CN2C1=O)OC1CCCC1 (some centres undefined) gave Growth Rate of 0.89

Lab note: "Nc1nc2cc(-c3cc(Cl)ccc3Oc3cc(F)c(S(=O)(=O)Nc4ncns4)cc3F)ccc2[nH]1" gave Growth Rate of 0.89

Lab note: "O=C1NC(Nc2ccccc2)=N/C1=C\c1ccc2c(c1)OCO2" gave Growth Rate of 0.95

Lab note: "COc1cc2ncnc(N[C@H](C)c3ccccc3)c2cc1OC1CCN(S(C)(=O)=O)CC1.Cl" gave Growth Rate of 0.74

Lab note: O=C1Nc2ccc(C(=O)c3ccco3)cc2C1=Cc1cc(Cl)c(O)c(Cl)c1 [GW406108X] gave Growth Rate of 0.56

Lab note: "CC(C)(O)C(=O)N1CCN(c2ccc(C(F)(F)F)c(C3=C(c4c[nH]c5ccccc45)C(=O)NC3=O)c2)CC1" gave Growth Rate of 0.76

Lab note: "COc1ccc(OC)c(-c2ccc(NC(=O)c3ccncc3F)cc2)c1" gave Growth Rate of 0.87

###

Test system: HEK-293T
Assay: Incucyte cell viability with HEK293T; note: unitless GR value; below 1 slowed growth and below 0 cell loss
Assay type: toxicity, cell-based
Details: human, 24 h, 10 µM, compound concentration 10 uM, replicate number 2
Growth Rate by entry:
# respond with the number and nothing more

Lab note: COc1cc(C(=O)NCCOCCOCCOCCC(=O)Nc2cccc3c2C(=O)N(C2CCC(=O)NC2=O)C3=O)ccc1Nc1ncc(C(F)(F)F)c(Oc2cccc3c2C(=O)CC3)n1 (stereo not given) gave Growth Rate of 0.74

###

Growth Rate by entry:
System: U2OS
Assay: Incucyte cell viability with U2OS; note: unitless GR value; below 1 slowed growth and below 0 cell loss
Assay type: toxicity, cell-based
Details: human, 24 h, 10 µM, compound concentration 10 uM, replicate number 1
# respond with the number and nothing more

Examples from the recorded data:
CCC(F)(F)c1cc(N2CCC(S(C)(=O)=O)CC2)nc2sc(C(N)=O)c(N)c12 [BI-605906]    0.96
C=CC(=O)N1CCC[C@@H](n2nc(-c3ccc(Oc4ccccc4)cc3)c3c(N)ncnc32)C1 [IBRUTINIB]    0.63
CC(C)Oc1ccc(Cc2ccc(NC3=NCCN3)cc2)cc1    0.58
Cc1c(-c2cc(-c3ccccc3Cl)no2)cnn1C1CCNCC1.Cl    0.89
CC(C)Nc1ncnc2cc(OCc3cccc([S@@](C)(=N)=O)c3)c(Br)cc12    0.93

Lab entry: U2OS assay, compound "Cc1nn(C)c(COc2ccc(N3CCN(S(=O)(=O)N(C)C)CC3)cc2)c1-c1cccc2c(CCCOc3cccc4ccccc34)c(C(=O)O)n(CCN3CCOCC3)c12" , Growth Rate = 0.86

Lab entry: U2OS assay, compound "COc1cc(C(C)C)c(Oc2cnc(NC(CO)CO)nc2N)cc1I" , Growth Rate = 0.83

Lab entry: U2OS assay, compound "CCC(C)(C)CC[C@H](NC(=O)N1CCOCC1)C(=O)NC1(C#N)CCN(C)CC1" , Growth Rate = 0.88

Lab entry: U2OS assay, compound "C[C@@H]1COCCN1c1cc(=O)n2c(n1)N(Cc1cncc(Cl)c1)[C@H](C(F)(F)F)CC2" , Growth Rate = 0.73
